Test system: native GABAC receptor on rat retinal bipolar cells
Assay: Whole-cell patch-clamp on dissociated rat retinal bipolar cells
Assay type: cell-based
Settings: read-out: IC50 at native GABAC receptor; GABA 10 μM, bicuculline 100 μM; n=6
Recorded Endpoint: pIC50
One number for each entry, as −log10 of the molar value.

stdin: What value of measured pIC50 is listed for CCCCP(=O)(O)[C@H]1CC[C@@H](N)C1 (relative stereo) [cis-3-ACPBPA] ?
stdout: 4.33

----------
Target: UniProtKB P24046
Sequence (P24046 22-479): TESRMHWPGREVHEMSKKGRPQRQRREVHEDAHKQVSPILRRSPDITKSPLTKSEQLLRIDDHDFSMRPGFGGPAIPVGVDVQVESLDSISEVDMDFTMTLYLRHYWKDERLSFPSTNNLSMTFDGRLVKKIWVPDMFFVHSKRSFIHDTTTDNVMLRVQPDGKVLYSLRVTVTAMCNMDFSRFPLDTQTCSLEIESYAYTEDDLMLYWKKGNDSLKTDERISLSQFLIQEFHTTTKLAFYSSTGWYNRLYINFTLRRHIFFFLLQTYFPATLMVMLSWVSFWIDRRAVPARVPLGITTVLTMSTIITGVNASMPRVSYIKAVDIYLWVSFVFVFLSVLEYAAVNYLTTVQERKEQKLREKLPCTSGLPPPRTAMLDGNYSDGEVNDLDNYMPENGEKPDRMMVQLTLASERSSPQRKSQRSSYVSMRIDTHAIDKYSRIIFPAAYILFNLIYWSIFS
Type: cell-based
Settings: read-out: GABAC ρ1 IC50; GABA 1 μM; n=4
Recorded Endpoint: pIC50
Give bare numbers, as −log10 of the molar value.

stdin: What value of measured pIC50 is listed for CCCCP(=O)(O)[C@H]1CC[C@@H](N)C1 (relative stereo) [cis-3-ACPBPA] ?
stdout: 5.30

----------
Target: human ρ2 GABAC receptors (Homo sapiens, UniProt P28476)
Sequence (P28476 21-465): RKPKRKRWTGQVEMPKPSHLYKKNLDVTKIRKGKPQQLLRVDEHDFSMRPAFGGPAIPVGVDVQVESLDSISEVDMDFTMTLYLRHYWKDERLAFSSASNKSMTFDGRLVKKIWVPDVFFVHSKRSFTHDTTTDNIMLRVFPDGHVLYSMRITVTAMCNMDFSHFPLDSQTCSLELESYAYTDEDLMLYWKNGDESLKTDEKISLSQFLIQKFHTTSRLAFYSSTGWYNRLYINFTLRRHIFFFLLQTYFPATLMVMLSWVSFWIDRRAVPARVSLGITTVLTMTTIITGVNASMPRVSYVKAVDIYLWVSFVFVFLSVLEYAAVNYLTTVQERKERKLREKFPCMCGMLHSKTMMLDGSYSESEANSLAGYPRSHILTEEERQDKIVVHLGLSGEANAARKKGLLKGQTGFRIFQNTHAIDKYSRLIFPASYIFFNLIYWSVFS
Type: cell-based
Conditions: read-out: GABAC ρ2 IC50; GABA 1 μM; n=4
Recorded Endpoint: pIC50
Give bare numbers, as −log10 of the molar value.

stdin: Please state recorded pIC50 (tested on human ρ2 GABAC receptors (Homo sapiens, UniProt P28476)) of CCCCP(=O)(O)[C@H]1CC[C@@H](N)C1 (relative stereo) [cis-3-ACPBPA]
stdout: 4.96

----------
Biological target: human ρ2 GABAC receptors (Homo sapiens, UniProt P28476)
Type: cell-based
Recorded Endpoint: IC50 (µM)
Answers are plain numbers, in µM.

stdin: What value of measured IC50 is listed for CCCCP(=O)(O)C1CCC(N)C1 (stereo not drawn) [trans-3-ACPBPA] ?
stdout: 190
